# maps each entry to its GI50
Test system: T47D
Test: NCI tumour cell line growth inhibition, 48 h
Active and inactive are the calls of the source. No stated cut-off is given here; in the data, active = GI50 up to about 1.1 µM and inactive = higher.

Worked set:
molecule	target_system	GI50
CC(=O)OC1CC2CC(=O)CC1N2C (stereo unspecified)	T47D	> 100 µM (inactive)
O=S1(=O)C[C@H](NCc2ccccc2)[C@H](NCc2ccccc2)C1	T47D	30.8 µM (inactive)
CC(=O)NNC(=S)N/C=C1/C(=O)C=C(C)OC1=O	T47D	> 100 µM (inactive)

Look at this molecule and give its reported GI50. `O=C(/C=C1\Nc2ncccc2N=C1CC(=O)c1ccccc1)c1ccccc1`
9.31 µM (inactive)

Sample `COc1ccc(/C=N\NC(=O)Nc2cccc3ccccc23)cc1` — what was its GI50?
14.1 µM (inactive)

# input molecule: Cn1c(=O)c2c(nc3n2CC(C(=O)O)N3)n(C)c1=O (stereo unspecified) ; wanted: its GI50
> 100 µM (inactive)

----------
Test system: 786-0
Assay: NCI tumour cell line growth inhibition, 48 h
Calls of active or inactive are those of the source. No stated cut-off is given here; in the data, active = GI50 up to about 1.1 µM and inactive = higher.
Parameter GI50: see the listing below.

Guide cases for GI50, answers given:
smiles_repr	GI50
COc1c(O)c(OC)c2oc(-c3ccc(O)c(O)c3)c(OC)c(=O)c2c1O	15 µM (inactive)
O=C(Nc1ccccc1)c1cc2cc(CCl)ccc2oc1=O	48.8 µM (inactive)
O[C@H]1[C@@H]2OC[C@@H](O)[C@H](OCc3ccccc3)[C@@](COCc3ccccc3)(O2)[C@@H]1OCc1ccccc1	19.9 µM (inactive)
O=[N+]([O-])c1ccc(S(=O)(=O)N=Ic2ccccc2)cc1	> 100 µM (inactive)

Write down the reported GI50 of `NCCSc1nc(-c2ccccc2)c(-c2ccccc2)o1` , test system: 786-0.
32.1 µM (inactive)

----------
System: HCC 2998
Assay: NCI tumour cell line growth inhibition, 48 h
The source made the active and inactive calls. Cut-off read from the data, not from the text of the source: active = GI50 up to about 1.1 µM and inactive = higher.
Your response should consist of one outcome taken from active, inactive

Example cases with answers are listed next.
compound	class_assignment
Fc1ccc(OCc2nc3cc(C(F)(F)F)ccc3nc2-c2ccccc2)cc1	inactive
C=C1CC[C@@H]2C(C)(C)C(O)CCC2(C)C1COc1ccc2ccc(=O)oc2c1 (stereo not given in full)	inactive
Cc1ccc(/C=C/C(=O)C(C)C)cc1	inactive
Clc1c(Cl)c(Cl)c2c(nnn2C2CCCO2)c1Cl (stereo not given)	inactive

Can you look up the reported call for COC1C(O)=C2C(=O)OC(C)(O)/C=C/C=C\C=C/C=C/C(c3ccccc3)NC(=O)/C=C/C=C/C=C/C=C/C2(C)C1O (stereo not given) for me?
active

----------
System: SK-MEL-5
Assay: NCI tumour cell line growth inhibition, 48 h
Active and inactive are the calls of the source. Rule as the data show it: active = GI50 up to about 1.1 µM and inactive = higher.
Respond only with the outcome that fits, drawn from active, inactive

# lookup: test call for `CCOC(=O)Cc1c(Cc2[nH]c(C(=O)OCc3ccccc3)c(CC(=O)OCC)c2CC(=O)OCC)[nH]c(C(=O)OCc2ccccc2)c1CC(=O)OCC`
inactive

// outcome(item) with item = `Cc1cccc2cc3cccc(C(=O)NCCN(C)C)c3nc12`
active

Assay outcome for `O=C1c2cc3c(cc2CC12Cc1cc4c(cc1C2=O)CCCC4)CCCC3` : what was it?
inactive

Per the assay record, what outcome was assigned to `CCOc1ccc(/N=N/c2c(-c3ccccc3)nn(C(=O)CC(=O)Nc3ccccc3Cl)c2-c2ccccc2)cc1` ?
inactive

// outcome(item) with item = `CCOC(=O)Nc1c(C#N)[n+]([O-])c2cc(Cl)c(Cl)cc2[n+]1[O-]`
inactive

----------
# GI50 listing for each entry below
System: SNB-75
Assay: NCI tumour cell line growth inhibition, 48 h
Activity calls are given as the source filed them. No stated cut-off is given here; in the data, active = GI50 up to about 1.1 µM and inactive = higher.

Consider the following illustrative entries.
compound	GI50
O=C(Nc1ccccc1)c1cc2cc(CCl)ccc2oc1=O	34.7 µM (inactive)
NCCSc1nc(-c2ccccc2)c(-c2ccccc2)o1	21 µM (inactive)
COc1ccc(N[C@H](C[S+]([O-])c2ccc(C)cc2)C(F)(F)C(F)(F)F)cc1 (some centres undefined)	21 µM (inactive)

# next compound below
Would you kindly share the measured GI50 for `CCc1cccc(C)c1NC(=S)NC(=O)c1ccccc1C(=O)NC(=S)Nc1c(C)cccc1CC` ?
> 100 µM (inactive)

----------
Entries and their GI50
Test system: NCI-H522
Assay: NCI tumour cell line growth inhibition, 48 h
Calls of active or inactive are those of the source. Rule as the data show it: active = GI50 up to about 1.1 µM and inactive = higher.

So what does the record say about GI50 for CCc1ccccc1NC(=O)C(=O)C(C#N)c1c(Cl)cccc1Cl (stereo not given) ?
> 100 µM (inactive)

Item COC12c3ccccc3-c3ccccc3C1[C@H]1C(=O)OC(=O)[C@H]12 (stereo not given in full) has what recorded GI50?
> 10 µM (inactive)

----------
Tested on: MDA-MB-231
Experiment: NCI tumour cell line growth inhibition, 48 h
Active and inactive are the calls of the source. No stated cut-off is given here; in the data, active = GI50 up to about 1.1 µM and inactive = higher.
value_type: GI50

# count of solved cases: 8
compound	GI50
c1ccc2c(c1)[nH]c1c3ccccc3sc21	> 100 µM (inactive)
O=C(c1ccco1)N(C(=S)OC12CC3CC(CC(C3)C1)C2)c1ccccc1	31.8 µM (inactive)
O=C1NCN(c2ccccc2)C12CCN(CCCN1CCN(CCOC(c3ccccc3)c3ccccc3)CC1)CC2	3.52 µM (inactive)
O=[N+]([O-])c1cc2c(cc1/C=N/n1c(CO)nc3ccccc31)OCO2	> 100 µM (inactive)
Cc1cn(CCOCCOC(=O)NC(CCCNC(N)=O)C(=O)O)c(=O)[nH]c1=O (configuration not stated)	> 100 µM (inactive)
COc1c(OC)c(OC)c2c(=O)c(OC)c(-c3ccc4c(c3)OCO4)oc2c1OC	> 100 µM (inactive)
N=C(CCl)NC1CN2CCC1CC2 (configuration not stated)	> 100 µM (inactive)
Oc1cc(-c2ccccc2Cl)nc2cc3c(cc12)OCO3	0.143 µM (active)

Suppose we examine the compound `CC(=O)N1CC(=O)N2C(=O)/C(=C/c3ccc(Cl)cc3)N=C12` ; what GI50 value has been reported?
> 100 µM (inactive)

GET /values?readout=GI50&item= `C[C@H](CCC1=NCCN1)[C@H]1CC[C@H]2[C@@H]3CC[C@@H]4C[C@H](O)CC[C@]4(C)[C@H]3C[C@H](O)[C@]12C`
14.9 µM (inactive)

----------
System: A498
Assay: NCI tumour cell line growth inhibition, 48 h
Calls of active or inactive are those of the source. Rule as the data show it: active = GI50 up to about 1.1 µM and inactive = higher.
A correct response names exactly one class from yes (active), no (inactive)

See these solved cases before continuing.
molecule	class_assignment
CCOC(=O)C1=C(C)NC(c2ccccc2)=C(C(=O)OCc2ccccc2)C1C#Cc1ccccc1 (centres undefined)	no
O=c1c2cc([N+](=O)[O-])ccc2[nH]n1Cc1ccccn1	no
CC(SC(=S)N1CCCCC1)C(=O)Nc1nnc(-c2ccc(Cl)cc2)o1 (centres undefined)	no
CC(=O)O[C@H]1C(=O)[C@@]2(C)[C@H]([C@H](OC(=O)c3ccccc3)[C@]3(O)C[C@H](OC(=O)[C@H](O)[C@@H](NC(=O)c4ccc(N(C)C)cc4)c4ccccc4)C(C)=C1C3(C)C)[C@]1(OC(C)=O)CO[C@@H]1C[C@@H]2O	yes
COc1ccc(S(=O)(=O)Nc2ccccc2C(=O)O)cc1	no

# outcome recorded in this test, key = `CCOC(=N)CC(=O)Nc1ccccc1`
no

What classification did `COc1c(Cl)ccc(Cl)c1-c1nnc(-c2c(Cl)c(Cl)c(Cl)c(Cl)c2-c2nc3cc(C(=O)c4ccccc4)ccc3[nH]2)o1` end up with in this test?
no

----------
Tested on: U-251
Experiment: NCI tumour cell line growth inhibition, 48 h
The source made the active and inactive calls. Cut-off read from the data, not from the text of the source: active = GI50 up to about 1.1 µM and inactive = higher.
value_type: GI50

Study these solved cases before continuing.
compound	GI50
Cc1cccc(NC(=O)C(=O)C(C2OC(=O)c3ccccc32)[N+](=O)[O-])c1C (centres undefined)	3.64 µM (inactive)
O=C1C(=O)N(C2CCCCC2)C(=S)N1C1CCCCC1	> 100 µM (inactive)
N=C(CCl)NC1CN2CCC1CC2 (centres undefined)	49.1 µM (inactive)

GI50 for CC(=O)OCC1OC(O[C@@H]2C[C@H]3C(C)(C)[C@H](OC(C)=O)CC[C@]3(C)[C@H]3CC[C@@H]4[C@]5(CC[C@@]4(C)[C@@]32C)O[C@@H]([C@H](O)C(C)(C)O)C[C@@H]5C)C(O)C(O)C1O (some centres undefined) ?
6.05 µM (inactive)

Fill in: GI50 of `CCCCC(/C=N/NC(=N)N)CC.Cc1cc(O)c(C(C)C)cc1S(=O)(=O)O` is ___
33.4 µM (inactive)

Reported GI50 for `O=C1OC(=O)c2c1nc1ccccc1c2-c1ccccc1` : what is it?
> 100 µM (inactive)

Give the measured GI50 of `CCN(CC)CCNc1nc2ccc([N+](=O)[O-])cc2[n+]([O-])n1` .
21.9 µM (inactive)

Entry under review: `COc1c(O)c(OC)c2oc(-c3ccc(O)c(O)c3)c(OC)c(=O)c2c1O` . Reported GI50?
16.9 µM (inactive)

For Cc1cn(C2C=CC(=O)C(C)O2)c(=O)[nH]c1=O (centres undefined) , what is its reported GI50?
15.3 µM (inactive)
